Assay Text: Binding affinity to AT-rich 5'-fluoro and 3'-TAMRA tagged 5'-TAT-ATA-TAG-ATA-TTT-TTT-TAT-CTA-TAT-ATA-3' hairpin DNA(unknown origin) assessed as thermal stabilization by measuring change in melting temperature at 1 uM incubated for 24 hrs by FRET analysis
Measured Endpoint: ΔTm (°C)

- COC(=O)c1cc(NC(=O)c2cc(NC(=O)CCCOc3cc4c(cc3OC)C(=O)N3CCC[C@H]3C=N4)cn2C)cn1C: 21.1
- CO[C@@]12[C@H](COC(N)=O)C3=C(C(=O)C(C)=C(N)C3=O)N1C[C@@H]1N[C@@H]12: 12.8
- COC(=O)c1cc(-c2ccc(NC(=O)c3cc(NC(=O)CCCOc4cc5c(cc4OC)C(=O)N4CCC[C@H]4C=N5)cn3C)cc2)cn1C: 18.5
- COC(=O)c1cc2cc(NC(=O)c3cc(NC(=O)CCCOc4cc5c(cc4OC)C(=O)N4CCC[C@H]4C=N5)cn3C)ccc2s1: 15.6

====

ΔTm values for the compounds below.
Assay Text: Binding affinity to GC-rich 5'-fluoro and 3'-TAMRA tagged 5'-TAT-AGG-GAC-AGC-CCT-ATA-3' hairpin DNA (unknown origin) assessed as thermal stabilization by measuring change in melting temperature at 1 uM incubated for 3 hrs by FRET analysis
Measured Endpoint: ΔTm (°C)

• CO[C@@]12[C@H](COC(N)=O)C3=C(C(=O)C(C)=C(N)C3=O)N1C[C@@H]1N[C@@H]12 [MITOMYCIN] = 11.5
• COC(=O)c1cc(NC(=O)c2cc(NC(=O)CCCOc3cc4c(cc3OC)C(=O)N3CCC[C@H]3C=N4)cn2C)cn1C = 18.6
• COC(=O)c1cc2cc(NC(=O)c3cc(NC(=O)CCCOc4cc5c(cc4OC)C(=O)N4CCC[C@H]4C=N5)cn3C)ccc2s1 = 15.6
• COC(=O)c1cc(-c2ccc(NC(=O)c3cc(NC(=O)CCCOc4cc5c(cc4OC)C(=O)N4CCC[C@H]4C=N5)cn3C)cc2)cn1C = 16.3

====

Assay Text: Binding affinity to GC-rich 5'-fluoro and 3'-TAMRA tagged 5'-TAT-AGG-GAC-AGC-CCT-ATA-3' hairpin DNA (unknown origin) assessed as thermal stabilization by measuring change in melting temperature at 1 uM incubated for 24 hrs by FRET analysis
Measured Endpoint: ΔTm (°C)

* COC(=O)c1cc(NC(=O)c2cc(NC(=O)CCCOc3cc4c(cc3OC)C(=O)N3CCC[C@H]3C=N4)cn2C)cn1C | 19.2
* COC(=O)c1cc(-c2ccc(NC(=O)c3cc(NC(=O)CCCOc4cc5c(cc4OC)C(=O)N4CCC[C@H]4C=N5)cn3C)cc2)cn1C | 17.4
* CO[C@@]12[C@H](COC(N)=O)C3=C(C(=O)C(C)=C(N)C3=O)N1C[C@@H]1N[C@@H]12 | 11.8
* COC(=O)c1cc2cc(NC(=O)c3cc(NC(=O)CCCOc4cc5c(cc4OC)C(=O)N4CCC[C@H]4C=N5)cn3C)ccc2s1 | 15.9
